test system: OVCAR-8 ovarian; assay: NCI tumour cell line growth inhibition, 48 h
Readout Name: TGI

O=C1CC2C=CC(O)C(C1)C2 (stereo unspecified)
> 100 µM
Cc1ccccc1C(C#N)C(=O)C(=O)Nc1nc([N+](=O)[O-])cs1 (stereo unspecified)
> 100 µM
O=C(CSc1nc2ccc([N+](=O)[O-])cc2[nH]1)Nc1ccc(F)c(Cl)c1
> 34.4 µM
N#Cc1c(N)[nH]c(=S)c(C#N)c1-c1cccc(Cl)c1
> 100 µM
C=C1CCC2C(/C=C(\C)CCC1O)OC(=O)C2C (stereo unspecified)
> 100 µM
CC1C(c2cc(C(C)(C)C)c(O)c(C(C)(C)C)c2)c2cc3c(cc2OC1N1CCOCC1)OCO3 (stereo unspecified)
60 µM
NC(CO)Cc1cnc[nH]1 (stereo unspecified)
> 100 µM
C#Cc1cnc(=O)n(C2CC(O)C(CO)O2)c1 (stereo unspecified)
> 100 µM
COC(=O)C1=C(C(=O)OC)C2OC1C1C2C2(C)C(C)=C(C)C1(C)S2=O (stereo unspecified)
> 100 µM
CCOc1ccc(S(=O)(=O)/N=C2\C=C(SCC(=O)O)C(=O)c3ccccc32)cc1
10.3 µM
O=C(O)c1ccc(NC(c2ccccc2)c2ccc3cccnc3c2O)cc1 (stereo unspecified)
> 41.5 µM

* * *

test system: NCI-H23 lung; experiment: NCI tumour cell line growth inhibition, 48 h
Readout Name: TGI (µM)

O=C(C#Cc1c[nH]c(=O)[nH]c1=O)c1ccccc1Cl
32.3
CCn1cc(C(c2ccc(Cl)cc2)n2ccnc2)c2cc(Br)ccc21 (stereo not given)
31.1
COC(=O)C(=O)CC(=O)CCn1ncc(Cl)c(Cl)c1=O
26.9
Cc1ccn2c3c(c(C(=O)O)c2c1)C(=O)c1ccccc1C3=O
5.88
CCOc1ccc(S(=O)(=O)/N=C2\C=C(SCC(=O)O)C(=O)c3ccccc32)cc1
14.2
Cc1ccc(N=Nc2c3c(c(O)c4ccccc24)CCC(C)(C)O3)cc1
28.6
Cc1cccc(N2C(=O)C3ON(C(C(N)=O)c4ccccc4)C(c4c5ccccc5c(Cl)c5ccccc45)C3C2=O)c1C (stereo not given)
32.1
CN(C)CC(=O)N1CCC(c2ccc(NC(=O)c3ncc(C#N)[nH]3)c(C3=CCCCC3)c2)CC1
19.5
Cc1[nH]c(/C=C2\C(=O)Nc3ccc(S(=O)(=O)Cc4c(Cl)cccc4Cl)cc32)c(C)c1C(=O)N1CCC[C@@H]1CN1CCCC1
12.3

* * *

tested on: OVCAR-5 ovarian; experiment: NCI tumour cell line growth inhibition, 48 h; in the data active = GI50 below about 0.43 µM; inactive = the rest
Outcome codes: 1 (active), 0 (inactive)

Clc1ccccc1C(c1ccccc1)(c1ccccc1)n1ccnc1
0
C=C1C(O)C2CCC(C)(C)C(=O)C2=C(CC(C)C)C12CC2 (stereo not given)
0
CNC(=O)c1ccccc1CC1(O)c2ccccc2Oc2ccccc21
0
O=C1/C(=C/c2ccc(F)cc2)CCOc2ccc([N+](=O)[O-])cc21
0
C=CC(=O)Nc1cccc(-c2nc(SC)nc(Nc3ccccc3OC)c2C#N)c1
0
C[C@@H]1CC[C@H]2C(COCC3=C(C(F)(F)F)O[C@@H]4O[C@@]5(C)CC[C@H]6[C@H](C)CC[C@@H]3[C@@]46OO5)=C(C(F)(F)F)O[C@@H]3O[C@@]4(C)CC[C@@H]1[C@]32OO4
1
CN=C(N)N/N=C(\c1ccccc1)c1ccc(Br)cc1
0
CN(C)CC(=O)N1CCC(c2ccc(NC(=O)c3ncc(C#N)[nH]3)c(C3=CCCCC3)c2)CC1
0
COc1ccc(NC(=O)Nc2n[nH]c3ccccc23)cc1
0
COC1(C(=O)N2Cc3nc(Cl)nc(N[C@H](C)c4cc(N)cc(C(F)(F)F)c4)c3C2)CCOCC1
0

* * *

test system: CCRF-CEM leukemia; assay: NCI tumour cell line growth inhibition, 48 h
TGI overview
Readout Name: TGI

CC(C)CC(N)C(=O)OCN1C(=O)C2C3C=CC(C2C1=O)C1C2C(=O)N(COC(=O)C(N)CC(C)C)C(=O)C2C31 (centres undefined)
> 100 µM
COc1ccc2nc(-c3ccc(OCc4ccccc4)cc3)ccc2c1
> 100 µM
Cc1cn(C2CC(N)C(CN)O2)c(=O)[nH]c1=O (centres undefined)
> 100 µM
O=c1c2c3ccccc3[nH]c2c2cccc3c2n1CCC3
> 100 µM
COc1ncc(C=C(C#N)C#N)c(OC)n1
32.6 µM
COc1c(C2CC(=O)Nc3c2cnn3Cc2ccco2)cc2c(c1OC)OCO2 (centres undefined)
> 100 µM
C#Cc1ccc(-n2c(/C=C/c3ccc(Cl)c(F)c3)nc3ncccc3c2=O)cc1
> 100 µM
COc1cc(C(=O)NC2c3ccccc3-c3ccccc32)c(N)cc1OCc1ccccc1
> 100 µM
C=CC(=O)N[C@H]1C=C(C)c2c(-c3cnc4ccccc4c3)c3c(N)ncnc3n2C1
> 100 µM
Cn1cc(NC(=O)c2cc(NC(=O)CCCCCCCCCCC(=O)Nc3cc(C(=O)Nc4cc(C(=O)NCCC(=N)N)n(C)c4)n(C)c3)cn2C)cc1C(=O)NCCC(=N)N
> 100 µM
COc1cc2c3c(cccc3c1)C(=O)N(CCN1CCCC1)C2=O
> 100 µM
Cc1cc([C@@H](C)Nc2ccccc2C(=O)O)c2nc(N3CCOCC3)cc(=O)n2c1
> 10 µM
C=C1C(=O)O[C@H]2[C@H]1CC/C(CNC(=O)c1c[nH]c3ccc(F)cc13)=C\CC[C@@]1(C)O[C@@H]21
1.83 µM
CC(=O)NC1C(OCc2ccccc2)OC(CO)C(O)C1OCC(=O)N[C@@H](C)C(=O)N[C@H](CCC(=O)NCCNCCNc1c2ccccc2nc2cccc([N+](=O)[O-])c12)C(N)=O (some centres undefined)
> 100 µM
CC(CO)(CO)N=Cc1cc(I)cc(I)c1O
44.5 µM
O=C1CC2(C[C@@H]3CCCCCCCCC[C@@H](C3)C2)N1 (some centres undefined)
37.6 µM
CCOC(=O)c1cc(=C2\CCN(CC(C)CC)C2=S)/c(=C(/O)CC)[nH]1 (centres undefined)
21.7 µM
O=C1CC(=O)N(c2ccccc2)N1/C(=C/c1ccccc1)c1ccccc1
3.57 µM
Cc1cccc(N2C(=O)C3ON(C(C(N)=O)c4ccccc4)C(c4c5ccccc5c(Cl)c5ccccc45)C3C2=O)c1C (centres undefined)
> 50 µM

* * *

tested on: LOX IMVI melanoma; experiment: NCI tumour cell line growth inhibition, 48 h; in the data active means GI50 below about 0.43 µM; inactive means the rest
Outcome codes: active, inactive

COc1cc2ncn(-c3cc(OCc4ccccc4Cl)c(C(N)=O)s3)c2cc1OC
active
N#Cc1c(-c2cccs2)c2c(=S)[nH]c(=S)[nH]c2[nH]c1=S
inactive
NC(CO)Cc1cnc[nH]1 (stereo not given)
inactive
C=CC(=O)N[C@H]1C=C(C)c2c(-c3cnc4ccccc4c3)c3c(N)ncnc3n2C1
inactive
COc1cc(-n2cc(-c3ccc(Cl)c(Cl)c3)nc2SCc2ccccc2)cc(OC)c1OC
inactive
CC1(C)N=C(N)N=C(N)N1c1ccc(CCCCc2ccc(S(=O)(=O)F)cc2)cc1
inactive
CCOc1ccc(S(=O)(=O)/N=C2\C=C(SCC(=O)O)C(=O)c3ccccc32)cc1
inactive
O=C(NNc1nc2c(F)cccc2n2cccc12)c1cnccn1
active
CCN1CCN(c2nc(NCCCNc3ccnc4cc(Cl)ccc34)c3ccccc3n2)CC1
inactive
COc1c(C2CC(=O)Nc3c2cnn3Cc2ccco2)cc2c(c1OC)OCO2 (stereo not given)
inactive

* * *

test system: SR leukemia; experiment: NCI tumour cell line growth inhibition, 48 h
TGI overview
Readout Name: TGI

C=CC(=O)c1ccc2c(c1)OCCOCCOCCOCCOCCO2
> 100 µM
CCCCN(CC)c1nc(C)nc2c1c(C)c(C)n2-c1c(C)cc(C)cc1C
31.9 µM
COc1ccc(Nc2c(C#N)c3n(c4ccccc24)c2ccccc2[n+]3C)cc1OC
> 100 µM
CCCCc1c(O)nc(Nc2nc3ccccc3[nH]2)[nH]c1=O
> 100 µM
C[N+](C)(C)CC(=O)N/N=c1\cc(C(=O)Nc2ccc(N=O)cc2C#N)oc2cc(O)ccc12
> 100 µM

* * *

TGI overview
system: SK-MEL-28 melanoma; assay: NCI tumour cell line growth inhibition, 48 h
Readout Name: TGI

FC(F)(F)c1nc(-c2ccccc2Cl)[nH]c1C(F)(F)F
5.32 µM
Cc1c(Cl)cccc1NC(=O)C(=O)C1C(=O)CC(C)(C)CC1=O
> 100 µM
Cc1cccc(N2C(=O)C3ON(C(C(N)=O)c4ccccc4)C(c4c5ccccc5c(Cl)c5ccccc45)C3C2=O)c1C (stereo not given)
41.7 µM
CC1(C)CC2(C)CC1CC2O (stereo not given)
> 100 µM
COc1ccc(Nc2[nH]c(C(C)=O)c(N)c2C(=S)Nc2ccccc2)cc1
> 100 µM

* * *

tested on: OVCAR-3 ovarian; assay: NCI tumour cell line growth inhibition, 48 h
TGI overview
Readout Name: TGI (µM)

CC1C(c2cc(C(C)(C)C)c(O)c(C(C)(C)C)c2)c2cc3c(cc2OC1N1CCOCC1)OCO3 (stereo unspecified)
35
O=C(Nc1cccc(-n2ccc3c(NC(=O)c4ccccc4)nccc32)c1)c1cccc(C(F)(F)F)c1
0.0463
Cc1cn(C2C=CC(COP(=O)(OCC3=CC(=O)c4ccccc4C3=O)N(C)CCCCCl)O2)c(=O)[nH]c1=O (stereo unspecified)
19.1
Cc1cccc(N2C(=O)C3ON(C(C(N)=O)c4ccccc4)C(c4c5ccccc5c(Cl)c5ccccc45)C3C2=O)c1C (stereo unspecified)
17.5
C[C@@H]1CC[C@@H]2[C@@H]1[C@H](OC(=O)/C=C/c1ccccc1)[C@]1(c3ccccc3)C[C@@H](OC(=O)CO)[C@@]2(C)O1
27
O=C(c1cccs1)c1c(C(F)(F)F)n([O-])c2ccccc2[n+]1=O
1.67
CC(CO)(CO)N=Cc1cc(I)cc(I)c1O
29.2
CCSc1nnc(CSc2nc(-c3ccccc3)c(-c3ccccc3)[nH]2)n1-c1ccccc1
35.2
O=C1CC(O)c2c1csc2Br (stereo unspecified)
64.4
O=C(CSc1nc2ccc([N+](=O)[O-])cc2[nH]1)Nc1ccc(F)c(Cl)c1
10.1
